target_desc: Transient receptor potential cation channel subfamily V member 4 (Homo sapiens, UniProt Q9HBA0)
Sequence (Q9HBA0 whole entry): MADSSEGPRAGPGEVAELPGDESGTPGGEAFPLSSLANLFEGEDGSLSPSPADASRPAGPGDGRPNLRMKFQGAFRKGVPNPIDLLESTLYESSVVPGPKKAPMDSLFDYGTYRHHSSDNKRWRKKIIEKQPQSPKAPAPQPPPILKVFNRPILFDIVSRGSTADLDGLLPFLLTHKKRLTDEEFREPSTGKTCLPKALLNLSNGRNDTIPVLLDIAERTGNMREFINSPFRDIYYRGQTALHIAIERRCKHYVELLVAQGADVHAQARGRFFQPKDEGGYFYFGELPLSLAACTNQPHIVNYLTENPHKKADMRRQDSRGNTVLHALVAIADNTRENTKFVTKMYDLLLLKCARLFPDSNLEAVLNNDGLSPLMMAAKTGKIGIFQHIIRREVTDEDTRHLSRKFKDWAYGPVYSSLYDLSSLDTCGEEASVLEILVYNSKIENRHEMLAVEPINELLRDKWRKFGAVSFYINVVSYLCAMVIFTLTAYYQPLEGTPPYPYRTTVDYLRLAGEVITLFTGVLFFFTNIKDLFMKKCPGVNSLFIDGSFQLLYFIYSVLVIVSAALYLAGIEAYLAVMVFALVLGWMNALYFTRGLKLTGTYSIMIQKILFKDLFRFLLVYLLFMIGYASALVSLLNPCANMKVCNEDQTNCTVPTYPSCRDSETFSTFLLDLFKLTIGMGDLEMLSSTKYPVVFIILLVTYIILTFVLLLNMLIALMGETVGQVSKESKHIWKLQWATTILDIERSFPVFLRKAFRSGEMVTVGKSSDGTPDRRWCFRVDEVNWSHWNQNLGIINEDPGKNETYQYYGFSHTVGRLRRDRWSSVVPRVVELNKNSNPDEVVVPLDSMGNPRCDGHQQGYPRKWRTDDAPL
assay_name: Antagonist activity at human TRPV4 receptor
property_label: IC50

Exercise: Given `Cc1nc(Nc2cccc3c2C[C@H](O)CC3)oc1-c1ccc(C(F)(F)F)cc1` , state its recorded IC50.
Solution: > 100 µM

====

assay_name: Half life in rat at 10 umol/kg, iv
Type: ADME, organism-based
protocol_conditions: in vivo
property_label: half-life
State the value, then name its unit.

molecule="Cc1nc(Nc2cccc3c2CC(O)CC3)oc1-c1ccc(C(F)(F)F)cc1 (centres undefined)" property_label=half-life result="2.8 h"
molecule=Cc1nc(Nc2cccc3c2C[C@H](O)CC3)oc1-c1ccc(C(F)(F)F)cc1 property_label=half-life result="3.8 h"
molecule=Cc1nc(Nc2cccc3c2C[C@@H](O)CC3)oc1-c1ccc(C(F)(F)F)cc1 property_label=half-life result="1.9 h"

Please look at the following molecule next.
Exercise: Given OC1CCc2cccc(Nc3ncc(-c4ccc(C(F)(F)F)cc4)o3)c2C1 (centres undefined) , state its recorded half-life.
Solution: 0.7 h

====

assay_name: Cmax in rat at 10 umol/kg, po
Format: ADME, organism-based
Design: dose 10 umol/kg, route oral
protocol_conditions: in vivo
The following molecules are shown together with reported Cmax values.
State the value, then name its unit.

molecule="OC1CCc2cccc(Nc3ncc(-c4ccc(C(F)(F)F)cc4)o3)c2C1 (centres undefined)" result="23 ng/mL"

Exercise: Given Cc1nc(Nc2cccc3c2CC(O)CC3)oc1-c1ccc(C(F)(F)F)cc1 (centres undefined) , state its recorded Cmax.
Solution: 96 ng/mL

Exercise: Given `Cc1nc(Nc2cccc3c2C[C@@H](O)CC3)oc1-c1ccc(C(F)(F)F)cc1` , state its recorded Cmax.
Solution: 20 ng/mL

Exercise: Given `Cc1nc(Nc2cccc3c2C[C@H](O)CC3)oc1-c1ccc(C(F)(F)F)cc1` , state its recorded Cmax.
Solution: 130 ng/mL

====

assay_name: Plasma clearance in rat at 10 umol/kg, iv and po
Type: ADME, organism-based
property_label: clearance

compound=Cc1nc(Nc2cccc3c2C[C@@H](O)CC3)oc1-c1ccc(C(F)(F)F)cc1 result="73.3 mL/min/kg"

Exercise: Given Cc1nc(Nc2cccc3c2CC(O)CC3)oc1-c1ccc(C(F)(F)F)cc1 (centres undefined) , state its recorded clearance.
Solution: 40 mL/min/kg

Exercise: Given `Cc1nc(Nc2cccc3c2C[C@H](O)CC3)oc1-c1ccc(C(F)(F)F)cc1` , state its recorded clearance.
Solution: 20 mL/min/kg

Exercise: Given OC1CCc2cccc(Nc3ncc(-c4ccc(C(F)(F)F)cc4)o3)c2C1 (centres undefined) , state its recorded clearance.
Solution: 85 mL/min/kg

====

target_desc: Transient receptor potential cation channel subfamily V member 2 (Rattus norvegicus, UniProt Q9WUD2)
Sequence (Q9WUD2 whole entry): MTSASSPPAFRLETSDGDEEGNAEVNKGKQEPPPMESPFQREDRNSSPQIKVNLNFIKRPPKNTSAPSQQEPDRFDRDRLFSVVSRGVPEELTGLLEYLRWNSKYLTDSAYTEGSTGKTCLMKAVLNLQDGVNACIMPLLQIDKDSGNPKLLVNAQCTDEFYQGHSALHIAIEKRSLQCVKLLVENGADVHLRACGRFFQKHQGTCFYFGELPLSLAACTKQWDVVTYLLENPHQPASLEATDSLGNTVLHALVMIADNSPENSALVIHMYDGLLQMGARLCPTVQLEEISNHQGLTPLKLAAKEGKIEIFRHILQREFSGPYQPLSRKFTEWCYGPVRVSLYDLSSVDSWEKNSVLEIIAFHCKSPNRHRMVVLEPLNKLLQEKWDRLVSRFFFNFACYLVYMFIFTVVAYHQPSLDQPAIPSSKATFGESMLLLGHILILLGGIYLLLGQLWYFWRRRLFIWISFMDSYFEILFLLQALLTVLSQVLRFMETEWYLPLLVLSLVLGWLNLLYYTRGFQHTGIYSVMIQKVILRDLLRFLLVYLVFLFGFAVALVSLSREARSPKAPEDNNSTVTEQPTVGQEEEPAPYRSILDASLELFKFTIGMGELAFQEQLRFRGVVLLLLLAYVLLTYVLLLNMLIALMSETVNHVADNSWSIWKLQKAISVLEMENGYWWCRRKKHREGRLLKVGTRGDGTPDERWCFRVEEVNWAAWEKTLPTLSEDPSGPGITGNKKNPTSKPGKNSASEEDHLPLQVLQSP
assay_name: Antagonist activity at rat TRPV2 receptor
property_label: pIC50
Note on units: pIC50 is unitless, being -log10 of a concentration expressed in mol/L.

Exercise: Given `Cc1nc(Nc2cccc3c2C[C@H](O)CC3)oc1-c1ccc(C(F)(F)F)cc1` , state its recorded pIC50.
Solution: 4.43
